// provenance: patent US20210269496A1

study_target: T1, CD25 (Homo sapiens (Human), UniProt P01589 22-240)
T1 construct: also called IL-2R alpha chain
T1 sequence: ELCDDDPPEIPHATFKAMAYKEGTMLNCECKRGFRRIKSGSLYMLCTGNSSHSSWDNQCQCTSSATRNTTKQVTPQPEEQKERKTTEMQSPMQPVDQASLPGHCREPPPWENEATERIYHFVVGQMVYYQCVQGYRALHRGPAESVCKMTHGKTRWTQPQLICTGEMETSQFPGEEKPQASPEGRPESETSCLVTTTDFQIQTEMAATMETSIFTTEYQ
assay_summary: ELISA, CD25 coated at 0.5 µg/mL, detection with biotinylated anti-IL-2 polyclonal
Description: An immunosorbent plate was coated with CD25 at a concentration of 0.5 μg/mL in PBS pH 7.4, 75 μL/well, and incubated overnight at 4° C. Wells were washed with PBS pH 7.4 containing 0.05% Tween-20 (wash buffer) three times, and then blocked with 200 μL/well 1% BSA in PBS pH 7.4 (block buffer) for two hours at room temperature. […] OD 450 nm was measured. […]
pEC50: −log10 of the molar value.
assay_readout: pEC50

>>> reported_result("human IL-2 mutein polypeptide fused N-terminally to human IgG1 Fc domain (SEQ ID NO: 57) (Fc fusion, also called IL-2 N88D V69A, Q74P-G4Sx4-Fc) APTSSSTKKTQLQLEHLLLDLQMILNGINNYKNPKLTRMLTFKFYMPKKATELKHLQCLEEELKPLEEALNLAPSKNFHLRPRDLISDINVIVLELKGSETTFMCEYADETATIVEFLNRWITFSQSIISTLTGGGGSGGGGSGGGGSGGGGSDKTHTCPPCPAPEAAGAPSVFLFPPKPKDTLMISRTPEVTCVVVDVSHEDPEVKFNWYVDGVEVHNAKTKPREEQYNSTYRVVSVLTVLHQDWLNGKEYKCKVSNKALPAPIEKTISKAKGQPREPQVYTLPPSREEMTKNQVSLTCLVKGFYPSDIAVEWESNGQPENNYKTTPPVLDSDGSFFLYSKLTVDKSRWQQGNVFSCSVMHEALHNHYTQKSLSLSPG")
"> 9.00"
>>> reported_result("SEQ ID NO 56 (Fc fusion, also called IL-2 L118I N88D V69A, Q74P, C125S-G4Sx4-Fc) APTSSSTKKTQLQLEHLLLDLQMILNGINNYKNPKLTRMLTFKFYMPKKATELKHLQCLEEELKPLEEALNLAPSKNFHLRPRDLISDINVIVLELKGSETTFMCEYADETATIVEFINRWITFSQSIISTLTGGGGSGGGGSGGGGSGGGGSDKTHTCPPCPAPEAAGAPSVFLFPPKPKDTLMISRTPEVTCVVVDVSHEDPEVKFNWYVDGVEVHNAKTKPREEQYNSTYRVVSVLTVLHQDWLNGKEYKCKVSNKALPAPIEKTISKAKGQPREPQVYTLPPSREEMTKNQVSLTCLVKGFYPSDIAVEWESNGQPENNYKTTPPVLDSDGSFFLYSKLTVDKSRWQQGNVFSCSVMHEALHNHYTQKSLSLSPG")
"> 9.00"
